This collection of values is drawn from BindingDB's records for doi:10.1021/jm0582625.

# TARGET_ENTITY: farnesyl pyrophosphate synthase (Leishmania major)
# EXPERIMENTAL_PROTOCOL: Inhibitory activity against FPPS in Leishmania major
pIC50: −log10 of the molar value.
READOUT_TYPE: pIC50

> print(dat)
                                   molecule                             target.entity  recorded.measurement
1  O=P(O)(O)C(Cc1cccc(-c2ccccc2)c1)S(=O)(=O)O (stereo unspecified)  farnesyl pyrophosphate synthase (Leishmania major)                  4.96
